Biological target: human polyclonal IgG (Gammanorm) (human)
Assay: SPR (Biacore), retained IgG binding capacity after 100 NaOH cycles against reference Protein L
result-type: Sample/ref. ratio

{"columns": ["binder", "Sample/ref. ratio"],
 "data": [
  ["D3(N10Q, N45A, N60Q)4 (designed binder) PKEEVTIKAQLIYADGKTQTAEFKGTFEEATAEAYRYADLLAKEAGKYTVDVADKGYTLQIKFAGKEKTPEEPKEEVTIKAQLIYADGKTQTAEFKGTFEEATAEAYRYADLLAKEAGKYTVDVADKGYTLQIKFAGKEKTPEEPKEEVTIKAQLIYADGKTQTAEFKGTFEEATAEAYRYADLLAKEAGKYTVDVADKGYTLQIKFAGKEKTPEEPKEEVTIKAQLIYADGKTQTAEFKGTFEEATAEAYRYADLLAKEAGKYTVDVADKGYTLQIKFAGKEKTPEE", 2.61],
  ["D3(N10Q, N45A, N60Q)2 (designed binder) PKEEVTIKAQLIYADGKTQTAEFKGTFEEATAEAYRYADLLAKEAGKYTVDVADKGYTLQIKFAGKEKTPEEPKEEVTIKAQLIYADGKTQTAEFKGTFEEATAEAYRYADLLAKEAGKYTVDVADKGYTLQIKFAGKEKTPEE", 2.56],
  ["D3(N10Q, N45A, N60Q)2-cys (designed binder) PKEEVTIKAQLIYADGKTQTAEFKGTFEEATAEAYRYADLLAKEAGKYTVDVADKGYTLQIKFAGKEKTPEEPKEEVTIKAQLIYADGKTQTAEFKGTFEEATAEAYRYADLLAKEAGKYTVDVADKGYTLQIKFAGKEKTPEEC", 2.56],
  ["Protein L (protein) AIHNRAKEETPETPETDSEEEVTIKANLIFANGSTQTAEFKGTFEKATSEAYAYADTLKKDNGEYTVDVADKGYTLNIKFAGKEKTPEEPKEEVTIKANLIYADGKTQTAEFKGTFEEATAEAYRYADALKKDNGEYTVDVADKGYTLNIKFAGKEKTPEEPKEEVTIKANLIYADGKTQTAEFKGTFEEATAEAYRYADLLAKENGKYTVDVADKGYTLNIKFAGKEKTPEEPKEEVTIKANLIYADGKTQTAEFKGTFAEATAEAYRYADLLAKENGKYTADLEDGGYTINIRFAGKKVDEKPEE", 1],
  ["D3(N10Q, N45A, N60Q)4-cys (designed binder) PKEEVTIKAQLIYADGKTQTAEFKGTFEEATAEAYRYADLLAKEAGKYTVDVADKGYTLQIKFAGKEKTPEEPKEEVTIKAQLIYADGKTQTAEFKGTFEEATAEAYRYADLLAKEAGKYTVDVADKGYTLQIKFAGKEKTPEEPKEEVTIKAQLIYADGKTQTAEFKGTFEEATAEAYRYADLLAKEAGKYTVDVADKGYTLQIKFAGKEKTPEEPKEEVTIKAQLIYADGKTQTAEFKGTFEEATAEAYRYADLLAKEAGKYTVDVADKGYTLQIKFAGKEKTPEEC", 2.35]
]}
